The values you see were collected from patent US20120035214A1.

Listing of entries alongside the reported pIC50.
Molecular target: recombinant renin in human plasma (Homo sapiens)
Sequence (P00797 67-406): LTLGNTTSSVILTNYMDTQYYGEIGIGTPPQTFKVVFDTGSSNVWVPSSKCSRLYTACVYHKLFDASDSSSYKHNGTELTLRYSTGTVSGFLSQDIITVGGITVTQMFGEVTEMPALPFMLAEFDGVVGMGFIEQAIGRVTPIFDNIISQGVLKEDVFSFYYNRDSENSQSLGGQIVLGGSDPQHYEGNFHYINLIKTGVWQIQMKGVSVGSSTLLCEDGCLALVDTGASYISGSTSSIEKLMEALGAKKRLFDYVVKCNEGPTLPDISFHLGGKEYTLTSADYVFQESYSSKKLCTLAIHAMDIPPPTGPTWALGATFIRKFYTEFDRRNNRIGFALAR
Assay: Inhibition of renin in human plasma (QFRET, plasma)
Settings: human EDTA plasma with 1 nM recombinant renin added; 37° C., 1 hour
Answer as the number alone; pIC50 is minus log10 of concentration in mol/L.

Molecule	Experimental System	Observed Property	Measured Result
CC(=O)NCCc1ccc(C(F)(F)F)cc1-c1ccc([C@H]2CNCC[C@@H]2c2ccc(F)c(F)c2)c(Cl)c1 (racemic)	recombinant renin in human plasma (Homo sapiens)	pIC50	6.55
COCC(=O)NCCc1ccccc1-c1ccc([C@H]2CNCC[C@@H]2c2ccn(C)c(=O)c2)c(Cl)c1 (racemic)	recombinant renin in human plasma (Homo sapiens)	pIC50	7.11
CC(=O)NCCc1ccccc1-c1nnc([C@H]2CN[C@@H](C)C[C@@H]2c2ccc(F)c(F)c2)n1C1CC1	recombinant renin in human plasma (Homo sapiens)	pIC50	8.52
COCCCc1ccccc1-c1ccc([C@H]2CNCC[C@]2(O)c2cccnc2)c(C)c1 (racemic)	recombinant renin in human plasma (Homo sapiens)	pIC50	5.94
Cc1cc(-c2ccccc2CCNC(=O)C(F)(F)F)ccc1[C@H]1CNCC[C@@H]1c1cc(F)cc(F)c1 (racemic)	recombinant renin in human plasma (Homo sapiens)	pIC50	7.60
CC(=O)NCCc1ccccc1-c1noc([C@H]2CNCC[C@]2(O)c2ccc(F)c(F)c2)c1Br	recombinant renin in human plasma (Homo sapiens)	pIC50	8.80

## Input Any idea what pIC50 came out for CC(=O)NCCc1ccc(F)cc1-c1ccc([C@H]2CNCC[C@@H]2c2ccn(C)c(=O)c2)c(Cl)c1 (racemic) on recombinant renin in human plasma (Homo sapiens)?
## Output 8.22

## Input Any idea what pIC50 came out for Cc1cc(-c2ccccc2CCNC(=O)CO)ccc1[C@H]1CNCC[C@@H]1c1cc(F)cc(F)c1 (racemic) on recombinant renin in human plasma (Homo sapiens)?
## Output 7.52

## Input Any idea what pIC50 came out for Cc1cc(-c2ccccc2OCc2ccccc2)ccc1[C@H]1CNCC[C@@H]1c1cc(F)cc(F)c1 (racemic) on recombinant renin in human plasma (Homo sapiens)?
## Output 4.91

## Input Any idea what pIC50 came out for CC(=O)NCCc1cccnc1-c1onc([C@H]2CNCC[C@]2(O)c2ccc(F)c(F)c2)c1Br on recombinant renin in human plasma (Homo sapiens)?
## Output 7.05

## Input Any idea what pIC50 came out for COCCCc1ccc(-c2onc([C@H]3CNCC[C@]3(O)c3ccc(F)c(F)c3)c2Br)c(CCNC(C)=O)c1 on recombinant renin in human plasma (Homo sapiens)?
## Output 8.96

## Input Any idea what pIC50 came out for CC(=O)NCCc1ccccc1-c1onc([C@H]2CNCC[C@@H]2c2ccc(OCCOc3c(Cl)cc(C)cc3Cl)cc2)c1C(C)=O on recombinant renin in human plasma (Homo sapiens)?
## Output 8.92

## Input Any idea what pIC50 came out for COCCC[C@H](CNC(C)=O)c1ccccc1-c1onc([C@H]2CNCC[C@]2(O)c2ccc(F)c(F)c2)c1Br on recombinant renin in human plasma (Homo sapiens)?
## Output 8.66

## Input Any idea what pIC50 came out for COCCCc1ccccc1-c1cc(C)c([C@H]2CNCC[C@@H]2c2ccc(Cl)c(F)c2)cn1 (racemic) on recombinant renin in human plasma (Homo sapiens)?
## Output 6.64

## Input Any idea what pIC50 came out for CC(=O)NCCc1ccccc1-c1ccc([C@H]2CNCC[C@@H]2c2cc(F)cc(F)c2)c(C)c1 [Structure 16] on recombinant renin in human plasma (Homo sapiens)?
## Output 7.80

## Input Any idea what pIC50 came out for CC(=O)NCCc1ccccc1-c1onc([C@H]2CNCC[C@]2(O)c2ccc(COCC(F)(F)COC(C)C)cc2)c1Br on recombinant renin in human plasma (Homo sapiens)?
## Output 8.77

## Input Any idea what pIC50 came out for CC(=O)NCCc1ccccc1-c1onc([C@H]2CNCC[C@]2(O)c2ccc(F)c(F)c2)c1Br on recombinant renin in human plasma (Homo sapiens)?
## Output 9.22

## Input Any idea what pIC50 came out for Fc1ccc([C@H]2CCNC[C@@H]2c2nnc(-c3cccc(Cl)c3Cl)n2C2CC2)cc1F on recombinant renin in human plasma (Homo sapiens)?
## Output 9.19
